From: the RNAGym collection of RNA variant scans (doi:10.7554/elife.80360)

B1: HDV Ribozyme (parent)
chain: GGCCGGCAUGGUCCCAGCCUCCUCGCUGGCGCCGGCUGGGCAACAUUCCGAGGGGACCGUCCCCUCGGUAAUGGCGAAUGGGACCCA

- Variants of: B1
- assay-comment: self-cleavage, relative activity (ratio to wild type); higher = more cleavage; co-transcriptional
Categories are assigned from the measured self-cleavage using these intervals: low band: < 0.1; middle band: ≥ 0.1 and < 0.3; high band: ≥ 0.3

# mutant-id, answer-label
rows = [
    ("A16C U65C", "middle band"),
    ("G53U A56U", "high band"),
    ("A8U G34U", "middle band"),
    ("U20A C62A", "middle band"),
    ("C7U C32A", "low band"),
    ("A43C U69A", "high band"),
    ("C61G G67C", "high band"),
    ("C15U U69C", "high band"),
    ("C24A G53A", "high band"),
    ("C21G C66U", "low band"),
]

Assign a category based on measured self-cleavage for C14G C18A and give only the class name. middle band

And C13G G39C ? low band

One more variant: C4A A70G middle band

Again, but for C30G G50C middle band

Ok, now G11U C64A middle band

# iterate: A51U A71G high band

Same question, U23C C63G this time high band

Do the same for G52A G54A please high band

How about this variant: G39A G73U low band
